For each record, write down the corresponding peptide exchange yield.
- tgt: T1, HLA-A*02:01 (human)
- T1 construct: captured on streptavidin plates; also called peptide-receptive MHC molecules
- assayOverview: UV peptide exchange ELISA (anti-b2m); yield grade: + >10%, ++ >20%, +++ >50, ++++ >75%

Query: Consider the binder shown here: IAAGIFNDL What is its recorded peptide exchange yield?
Result: 10 to 20%

Query: Same thing, different binder: ILDDQTNKL
Result: 50 to 75%

Query: Another binder: FLYTYIAKV
Result: 50 to 75%

Query: How about this binder: LLKDSIVQL
Result: 50 to 75%

Query: Request: ILDNSPAFL
Result: 50 to 75%

Query: Another: TMIEICEKL
Result: > 75%

Query: Next binder: YLDKMNNNI
Result: > 75%

Query: Also need KLGFGTGVNVYL , thanks.
Result: > 75%

Query: Now consider VLAVLGAVVAV .
Result: 50 to 75%

Query: Thanks! And AVDATVNQV ?
Result: 50 to 75%

Query: Next: FVDGSAIQV
Result: 50 to 75%

Query: Could you do the same for ALDPAYTTL , please?
Result: 50 to 75%

Query: What do you get for VMSSTLYTV ?
Result: > 75%

Query: Next: TLLESIQHV
Result: > 75%

Query: Likewise for KLFTQIFGV ?
Result: > 75%

Query: Cool, now SLAGLVLYV
Result: > 75%

Query: Can you handle ILLDRLFSV next?
Result: > 75%

Query: Also HLIGWTAFL , if possible.
Result: > 75%

Query: Same question, FMYAGQLTL this time
Result: > 75%

Query: And then ALDDISESI , what is it?
Result: > 75%

Query: Here is the next binder: FLPQKIIYL
Result: > 75%

Query: Note, next up: LLYEDIPDKV
Result: 50 to 75%

Query: # repeat for NLREILQNV
Result: 50 to 75%

Query: Item: GVGPVPARA
Result: 50 to 75%

Query: Entry to check: TLYEQEIEV
Result: > 75%

Query: Another binder to check: HLDQIFQNL
Result: 20 to 50%

Query: Try this binder too: LLDEVLHTM
Result: > 75%

Query: What do you get for ALFFQLVDV ?
Result: 20 to 50%

Query: Same again, this time with GLCDSIITI
Result: > 75%

Query: What would you report for RLDEVSREL ?
Result: 50 to 75%

Query: Follow-up entry: ILADATAKM
Result: > 75%

Query: Now this one: SLDQIIQHL
Result: 50 to 75%

The values you see were collected from patent US20190040115A1.
